Where do these numbers come from? They come from PubChem BioAssay (NCATS).

System: CP237
EXPERIMENTAL DETAILS: qHTS profiling for inhibitors of Plasmodium falciparum proliferation (AID 504749); also: nearly all actives have a fitted effect of over 60% in size
ASSAY CONDITIONS: P. falciparum in erythrocytes, SYBR Green DNA, 72 h; series mostly up to 28.7 µM
Records with an inconclusive call do not appear. The source made the active and inactive calls. Calls follow the shape of the dose curve; as a rule, active = well fitted inhibition curve with a large enough effect; inconclusive = small, poorly fitted or top-dose-only effect; inactive = flat fitted curve, though single readings scatter.
// one of active, inactive, no free text

Example entries begin here.
• C=CCOC(Cn1ccnc1)c1ccc(Cl)cc1Cl (configuration not stated) = active
• CCC1(CC)C(=O)NC(=O)NC1=O = inactive
• COc1ccc(CN2CCNCC2)c(OC)c1OC = inactive

Ask: // outcome(item) with item = C[C@]12C=CC(=O)C=C1CC[C@@H]1[C@@H]2CC[C@@]2(C)[C@H]1CC[C@]2(C)O
Result: inactive

Ask: // outcome(item) with item = NC(=O)OCCCc1ccccc1
Result: inactive

Ask: // outcome(item) with item = CNC(=O)NC(O)C(Cl)(Cl)Cl (configuration not stated)
Result: inactive

Ask: // outcome(item) with item = ClC1=C(Cl)C2(Cl)C(CBr)CC1(Cl)C2(Cl)Cl (configuration not stated)
Result: inactive
